Record type: pIC50 measurement. Applies to: Matrix metalloproteinase-14 (Homo sapiens, UniProt P50281)
A value of pIC50 is the negative decimal logarithm of a concentration given in moles per litre.

# annotated cases, reported pIC50 shown
COMPOUND STRING | TARGET SYSTEM | pIC50
O=C(CCS)Nc1ccccc1C(=O)O | Matrix metalloproteinase-14 (Homo sapiens, UniProt P50281) | 4.92
NC(=O)NS(=O)(=O)c1ccc(NC(=O)CCS)cc1 | Matrix metalloproteinase-14 (Homo sapiens, UniProt P50281) | 4.51

Consider the additional compound presented here.
Write pIC50 of O=C(CCS)Nc1cccc(C(=O)O)c1 ; system used: Matrix metalloproteinase-14 (Homo sapiens, UniProt P50281)
4.17
